- assay_notes: green autofluorescence of compounds with avidin beads – biophysical, 488/530 nm, flow cytometry, artefact control, profiling panel (AID 1775)
- measurement_parameters: compound fluorescence 488/530 nm, at 10 µM, hits give high values
Screen size: about 220,000 compounds; about 820 (0.37%) were called active. The sample holds actives, similar compounds and a random draw of the others, so the mix is not that of the screen.
property_measured: fluorescence (KMESF)

[[record]]
molecule = "Cn1c(SCc2c(F)cccc2Cl)nnc1-c1cnccn1"
reported = 1

[[record]]
molecule = "CCCC1C(c2ccccc2)C(C#N)(C#N)C2(C#N)CC1(N)NC2=O (configuration not stated)"
reported = 90

[[record]]
molecule = "Cc1ccc(C(=O)COC(=O)CCN2C(=O)C3C4CC(C(Br)C4Br)C3C2=O)cc1 (configuration not stated)"
reported = 14

[[record]]
molecule = "CCOC(=O)CC(NC(=O)C1c2ccccc2Oc2ccccc21)c1ccc(C)cc1 (configuration not stated)"
reported = 11

[[record]]
molecule = "Brc1ccc(CSc2ccc(-c3ccco3)nn2)cc1"
reported = 13

[[record]]
molecule = "CC1CCc2c(c3ccccc3[nH]c2=O)O1 (configuration not stated)"
reported = 57

[[record]]
molecule = "CCCCc1nc2c(=O)[nH]c3ccccc3c2o1"
reported = 26

[[record]]
molecule = "CNC(=S)N1CCC(NC(=O)C(Cc2ccc(F)cc2)NC(C)=O)CC1 (configuration not stated)"
reported = 10

[[record]]
molecule = "Fc1cccc(Cl)c1CSc1ccc(-c2ccco2)nn1"
reported = 49

[[record]]
molecule = "Cc1ccccc1C(OCCN(C)C)C1CCCCC1 (configuration not stated)"
reported = 13

[[record]]
molecule = "CCOc1ccc2sc(NS(=O)(=O)c3ccc(N)cc3)nc2c1"
reported = 4

[[record]]
molecule = "OCCn1c(-c2ccccc2)csc1=Nc1ccccc1"
reported = 3


----------
- assay_notes: green autofluorescence of compounds with avidin beads – biophysical, 488/530 nm, flow cytometry, artefact control, profiling panel (AID 1775)
- measurement_parameters: compound fluorescence 488/530 nm, at 10 µM, hits give high values
About 820 (0.37%) of roughly 220,000 compounds were called active. Many of the other results were omitted from the sample, so actives are more common in it than they were.
// bucketize fluorescence (KMESF): L: < 7; M: ≥ 7 and < 20; H: ≥ 20

[[record]]
compound = "COc1ccc(NC(=O)C2C3C=CC(C3)C2C(=O)NCc2ccccn2)c(OC)c1 (stereo unspecified)"
assigned_label = "H"

[[record]]
compound = "COc1cc2c(cc1OC)C(c1ccc(C)o1)CC(=O)N2 (stereo unspecified)"
assigned_label = "H"

[[record]]
compound = "COC(=O)c1ccc(C2CC(=O)Nc3cc(OC)c(OC)cc32)cc1 (stereo unspecified)"
assigned_label = "M"

[[record]]
compound = "Cn1c(SCC(=O)N2CCCc3ccccc32)nc2ccccc2c1=O"
assigned_label = "L"

[[record]]
compound = "COc1cc2c(cc1OC)C(c1ccncc1)CC(=O)N2 (stereo unspecified)"
assigned_label = "H"

[[record]]
compound = "O=C(CN1CCN(c2ccc(Cl)cc2)CC1)N1CCCC1"
assigned_label = "M"

[[record]]
compound = "CN(C)/C(=N\\OC(=O)c1ccccc1)c1nonc1N"
assigned_label = "M"

[[record]]
compound = "COC(=O)c1ccccc1OCC(=O)N1CCN(c2ccc(Cl)cc2)CC1"
assigned_label = "H"

[[record]]
compound = "Cc1nnc(Nc2ccccc2F)s1"
assigned_label = "L"

[[record]]
compound = "Cc1ccc(S(=O)(=O)N2CCOCC2)cc1C(=O)NC(=S)N(Cc1ccccc1)C(C)C"
assigned_label = "L"

